Target: Neuronal acetylcholine receptor; alpha4/beta2 (Rattus norvegicus, UniProt P09483+P12390)
Sequence (P09483 whole entry): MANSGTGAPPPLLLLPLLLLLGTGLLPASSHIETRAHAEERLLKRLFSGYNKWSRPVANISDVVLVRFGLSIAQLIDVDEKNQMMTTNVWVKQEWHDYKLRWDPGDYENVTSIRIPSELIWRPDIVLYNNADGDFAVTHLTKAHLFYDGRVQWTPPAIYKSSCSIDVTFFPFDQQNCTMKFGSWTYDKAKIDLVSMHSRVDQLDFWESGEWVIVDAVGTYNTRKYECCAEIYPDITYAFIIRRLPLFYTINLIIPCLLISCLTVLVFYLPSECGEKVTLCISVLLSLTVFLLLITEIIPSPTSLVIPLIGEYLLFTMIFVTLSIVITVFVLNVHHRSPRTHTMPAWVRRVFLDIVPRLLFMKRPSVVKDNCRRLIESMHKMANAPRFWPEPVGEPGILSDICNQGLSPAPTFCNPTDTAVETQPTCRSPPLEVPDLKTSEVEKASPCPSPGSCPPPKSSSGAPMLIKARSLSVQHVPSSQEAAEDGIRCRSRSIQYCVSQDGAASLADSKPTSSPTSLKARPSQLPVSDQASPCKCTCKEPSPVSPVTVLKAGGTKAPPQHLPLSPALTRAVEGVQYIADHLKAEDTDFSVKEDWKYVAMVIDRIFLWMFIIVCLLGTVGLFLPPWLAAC
Sequence (P12390 whole entry): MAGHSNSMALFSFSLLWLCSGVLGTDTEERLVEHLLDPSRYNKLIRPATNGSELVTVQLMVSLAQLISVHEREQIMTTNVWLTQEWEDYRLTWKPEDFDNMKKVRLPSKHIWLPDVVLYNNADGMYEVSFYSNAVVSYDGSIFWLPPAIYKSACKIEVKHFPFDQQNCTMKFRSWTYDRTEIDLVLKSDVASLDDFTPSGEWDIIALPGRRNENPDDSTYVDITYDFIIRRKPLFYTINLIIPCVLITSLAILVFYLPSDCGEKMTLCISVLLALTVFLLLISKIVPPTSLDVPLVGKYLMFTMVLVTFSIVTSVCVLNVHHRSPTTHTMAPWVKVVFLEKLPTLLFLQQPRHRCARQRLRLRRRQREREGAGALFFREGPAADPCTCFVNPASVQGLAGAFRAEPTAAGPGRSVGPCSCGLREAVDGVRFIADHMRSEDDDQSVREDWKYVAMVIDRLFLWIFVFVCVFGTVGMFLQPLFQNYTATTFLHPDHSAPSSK
Assay: Binding affinity for nicotinic acetylcholine receptor alpha4-beta2 was evaluated by its ability to inhibit [3H]NIC binding to rat brain membranes
observed property: Ki (µM)
Give the number; µM is assumed, so skip it.

`COc1cc2c3cc1Oc1cc(ccc1O)C[C@@H]1c4c(cc(OC)c(O)c4Oc4ccc(cc4)C[C@@H]3N(C)CC2)CC[N+]1(C)C` has a reported Ki of 9.72

Ki recorded for this compound, `CN1CCC[C@H]1c1ccc[n+](CCCCCCCCCC[n+]2cccc([C@@H]3CCCN3C)c2)c1` , is 0.33

Entry `c1ccc2c[n+](CCCCCCCC[n+]3ccc4ccccc4c3)ccc2c1` , Ki reported as 65.5

The measured Ki associated with `Cc1ccc[n+](CCCCCCCCC[n+]2cccc(C)c2)c1` reads 79.9

Lookup result for C[N+](C)(C)CCCCCC[N+](C)(C)C [HEXAMETHONIUM CHLORIDE] ; measured Ki: 21.7

Looking up `c1cc[n+](CCCCCCCC[n+]2ccccc2)cc1` , I found its Ki recorded as 34.3

Per the record, `CCCCCCCCCC[n+]1cccc([C@@H]2CCCN2C)c1` has Ki of 0.064

---

Biological target: Neuronal acetylcholine receptor subunit alpha-7 (Rattus norvegicus)
Experiment: Binding affinity nicotinic acetylcholine receptor alpha-7 was evaluated by its ability to inhibit [3H]methyllycaconitine ([3H]-MLA) binding to rat brain membranes
observed property: Ki

Briefly, Ki measured for `c1ccc2c[n+](CCCCCCCCC[n+]3ccc4ccccc4c3)ccc2c1` : 5.95 µM

For this compound ( `CN1CCC[C@H]1c1ccc[n+](CCCCCC[n+]2cccc([C@@H]3CCCN3C)c2)c1` ), measured Ki is > 100 µM

So, `c1ccc2c(c1)ccc[n+]2CCCCCCCCCC[n+]1cccc2ccccc21` ? Its Ki was 7.81 µM

---

Target: Neuronal acetylcholine receptor subunit alpha-7 (Rattus norvegicus, UniProt Q05941)
Sequence (Q05941 whole entry): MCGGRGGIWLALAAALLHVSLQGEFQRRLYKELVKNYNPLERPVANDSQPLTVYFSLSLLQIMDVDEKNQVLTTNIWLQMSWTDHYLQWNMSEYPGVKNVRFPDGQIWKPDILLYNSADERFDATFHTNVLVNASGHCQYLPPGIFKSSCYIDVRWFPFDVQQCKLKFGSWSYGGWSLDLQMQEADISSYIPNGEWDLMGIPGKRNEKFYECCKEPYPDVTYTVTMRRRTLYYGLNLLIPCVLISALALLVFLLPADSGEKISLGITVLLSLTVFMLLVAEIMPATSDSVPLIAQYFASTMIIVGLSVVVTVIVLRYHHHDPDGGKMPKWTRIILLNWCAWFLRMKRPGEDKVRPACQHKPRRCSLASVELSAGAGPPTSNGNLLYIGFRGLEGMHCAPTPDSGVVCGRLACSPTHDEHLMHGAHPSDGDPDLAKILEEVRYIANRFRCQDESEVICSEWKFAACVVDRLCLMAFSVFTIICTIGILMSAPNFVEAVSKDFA
Experiment: Binding affinity nicotinic acetylcholine receptor alpha-7 was evaluated by its ability to inhibit [3H]methyllycaconitine ([3H]-MLA) binding to rat brain membranes
observed property: Ki

Examples with their reported Ki follow.
The recorded Ki with Neuronal acetylcholine receptor subunit alpha-7 (Rattus norvegicus, UniProt Q05941) for `c1cc[n+](CCCCCCCC[n+]2ccccc2)cc1` was > 100 µM

Record `c1ccc2c[n+](CCCCCCCCCC[n+]3ccc4ccccc4c3)ccc2c1` has Neuronal acetylcholine receptor subunit alpha-7 (Rattus norvegicus, UniProt Q05941) Ki equal to 7.25 µM

So the reported Ki for `CN1CCC[C@H]1c1ccc[n+](CCCCCCCCCC[n+]2cccc([C@@H]3CCCN3C)c2)c1` , on Neuronal acetylcholine receptor subunit alpha-7 (Rattus norvegicus, UniProt Q05941), turned out to be > 100 µM

Summary: `Cc1ccc[n+](CCCCCC[n+]2cccc(C)c2)c1` , Neuronal acetylcholine receptor subunit alpha-7 (Rattus norvegicus, UniProt Q05941), Ki = > 100 µM

Entry `c1ccc2c[n+](CCCCCCCCCCC[n+]3ccc4ccccc4c3)ccc2c1` , tested on Neuronal acetylcholine receptor subunit alpha-7 (Rattus norvegicus, UniProt Q05941), has a reported Ki of 5.46 µM

Neuronal acetylcholine receptor subunit alpha-7 (Rattus norvegicus, UniProt Q05941) data for `c1ccc2c(c1)ccc[n+]2CCCCCCCC[n+]1cccc2ccccc21` ; its Ki: 2.39 µM

Field Ki (system: Neuronal acetylcholine receptor subunit alpha-7 (Rattus norvegicus, UniProt Q05941)) for entry `Cc1ccc[n+](CCCCCCCCCC[n+]2cccc(C)c2)c1` = > 100 µM

Kindly note: Neuronal acetylcholine receptor subunit alpha-7 (Rattus norvegicus, UniProt Q05941), `c1ccc2c[n+](CCCCCCCC[n+]3ccc4ccccc4c3)ccc2c1` , Ki value reported: 11.7 µM

Next:
Fill in: Neuronal acetylcholine receptor subunit alpha-7 (Rattus norvegicus, UniProt Q05941) Ki for `CN1CCC[C@H]1c1ccc[n+](CCCCCCCC[n+]2cccc([C@@H]3CCCN3C)c2)c1` = > 100 µM

# Ki measured on Neuronal acetylcholine receptor subunit alpha-7 (Rattus norvegicus, UniProt Q05941) for item `c1cc[n+](CCCCCCCCCC[n+]2ccccc2)cc1` = > 100 µM

# Ki measured on Neuronal acetylcholine receptor subunit alpha-7 (Rattus norvegicus, UniProt Q05941) for item C[N+](C)(C)CCCCCC[N+](C)(C)C [HEXAMETHONIUM CHLORIDE] = > 100 µM

---

Species: Rattus norvegicus
Assay: Compound was evaluated for inhibiting NIC-evoked [86Rb+] efflux from rat thalamic synaptosomes
Format: functional
Conditions: Brain
observed property: pIC50
Give only the number. pIC50 is defined as minus log10 of concentration in molar units.

GET /value?item= `CN1CCC[C@H]1c1ccc[n+](CCCCCCCCCC[n+]2cccc([C@@H]3CCCN3C)c2)c1` &field=pIC50 returns 5.42

New cases:
pIC50 in this record for `CN1CCC[C@H]1c1ccc[n+](CCCCCCCCCCC[n+]2cccc([C@@H]3CCCN3C)c2)c1` : 5.28

---

Overview of reported pKi across a group of compounds:
Target: Neuronal acetylcholine receptor; alpha4/beta2 (Rattus norvegicus, UniProt P09483+P12390)
Experiment: Binding affinity for nicotinic acetylcholine receptor alpha4-beta2 was evaluated by its ability to inhibit [3H]NIC binding to rat brain membranes
Parameters: species or system Membrane
pKi is defined as minus the log10 of a concentration measured in mol/L.

Given the compound `c1ccc2c(c1)ccc[n+]2CCCCCC[n+]1cccc2ccccc21` and test system Neuronal acetylcholine receptor; alpha4/beta2 (Rattus norvegicus, UniProt P09483+P12390), the measured pKi is 4.41

More entries:
// returns pKi for `CN1CCC[C@H]1c1ccc[n+](CCCCCCCC[n+]2cccc([C@@H]3CCCN3C)c2)c1` with Neuronal acetylcholine receptor; alpha4/beta2 (Rattus norvegicus, UniProt P09483+P12390); value = 5.81

Reported pKi (Neuronal acetylcholine receptor; alpha4/beta2 (Rattus norvegicus, UniProt P09483+P12390)) for entry `c1ccc2c(c1)ccc[n+]2CCCCCCCCCCC[n+]1cccc2ccccc21` is 4.42

Reported Neuronal acetylcholine receptor; alpha4/beta2 (Rattus norvegicus, UniProt P09483+P12390) pKi for item `CN1CCC[C@H]1c1ccc[n+](CCCCCCCCC[n+]2cccc([C@@H]3CCCN3C)c2)c1` was 5.30

// pKi (Neuronal acetylcholine receptor; alpha4/beta2 (Rattus norvegicus, UniProt P09483+P12390)) for `Cc1ccc[n+](CCCCCCCCCCCC[n+]2cccc(C)c2)c1` = 4.31

Field pKi (Neuronal acetylcholine receptor; alpha4/beta2 (Rattus norvegicus, UniProt P09483+P12390)), entry `c1ccc2c[n+](CCCCCCCCC[n+]3ccc4ccccc4c3)ccc2c1` : 5.10

---

Biological target: Neuronal acetylcholine receptor subunit alpha-7 (Rattus norvegicus, UniProt Q05941)
Experiment: Binding affinity nicotinic acetylcholine receptor alpha-7 was evaluated by its ability to inhibit [3H]methyllycaconitine ([3H]-MLA) binding to rat brain membranes
observed property: Ki

# compound `Cc1ccc[n+](CCCCCCCCCCC[n+]2cccc(C)c2)c1` ; its Ki = > 100 µM

New cases:
The reported value for `c1cc[n+](CCCCCCCCCCC[n+]2ccccc2)cc1` in terms of Ki is 57 µM

Per the records, this compound ( `Cc1ccc[n+](CCCCCCCCC[n+]2cccc(C)c2)c1` ) has Ki equal to > 100 µM

What the record says about `CCCCCCCCCC[n+]1cccc([C@@H]2CCCN2C)c1` : Ki is > 100 µM

Value of Ki reported for the compound `Cc1ccc[n+](CCCCCCCC[n+]2cccc(C)c2)c1` is > 100 µM

Lookup result for `c1cc[n+](CCCCC[n+]2ccccc2)cc1` ; measured Ki: > 100 µM

---

Target: Neuronal acetylcholine receptor subunit alpha-7 (Rattus norvegicus)
Assay: Binding affinity nicotinic acetylcholine receptor alpha-7 was evaluated by its ability to inhibit [3H]methyllycaconitine ([3H]-MLA) binding to rat brain membranes
observed property: Ki (µM)
Number in µM, nothing else.

Ki on Neuronal acetylcholine receptor subunit alpha-7 (Rattus norvegicus) for `COc1cc2c3cc1Oc1cc(ccc1O)C[C@@H]1c4c(cc(OC)c(O)c4Oc4ccc(cc4)C[C@@H]3N(C)CC2)CC[N+]1(C)C` is 4.79

Noted Ki for `c1ccc2c(c1)ccc[n+]2CCCCCCCCCCC[n+]1cccc2ccccc21` , tested on Neuronal acetylcholine receptor subunit alpha-7 (Rattus norvegicus): 2.58

The compound `c1ccc2c(c1)ccc[n+]2CCCCCCCCC[n+]1cccc2ccccc21` , when measured on Neuronal acetylcholine receptor subunit alpha-7 (Rattus norvegicus), yielded Ki of 3.58

Summary: `CCCCCCCC[n+]1cccc([C@@H]2CCCN2C)c1` , Neuronal acetylcholine receptor subunit alpha-7 (Rattus norvegicus), Ki = 23.6

---

Target: Neuronal acetylcholine receptor; alpha4/beta2 (Rattus norvegicus, UniProt P09483+P12390)
Experiment: Binding affinity for nicotinic acetylcholine receptor alpha4-beta2 was evaluated by its ability to inhibit [3H]NIC binding to rat brain membranes
Entries and their Ki values follow.

As a guide, the following entries are already answered.
Looking up `c1ccc2c(c1)ccc[n+]2CCCCCCCCCC[n+]1cccc2ccccc21` , I found its Ki recorded as > 100 µM

Record `c1ccc2c(c1)ccc[n+]2CCCCCCCC[n+]1cccc2ccccc21` . Reported Ki: > 100 µM

Noted for `c1cc[n+](CCCCC[n+]2ccccc2)cc1` : its Ki reads > 100 µM

The recorded Ki for `Cc1ccc[n+](CCCCCCCCCC[n+]2cccc(C)c2)c1` is > 100 µM

Consider `c1ccc2c[n+](CCCCCCCCCC[n+]3ccc4ccccc4c3)ccc2c1` . Its measured Ki is > 100 µM

So, `Cc1ccc[n+](CCCCCCCC[n+]2cccc(C)c2)c1` ? Its Ki was > 100 µM

Others:
Given item `CN1CCC[C@H]1c1ccc[n+](CCCCCCCCCCC[n+]2cccc([C@@H]3CCCN3C)c2)c1` , the value recorded as its Ki is 0.43 µM

Per the record, `c1ccc2c(c1)ccc[n+]2CCCCCCCCCCCC[n+]1cccc2ccccc21` has Ki of > 100 µM

What the record says about `Cc1ccc[n+](CCCCCC[n+]2cccc(C)c2)c1` : Ki is > 100 µM

The reported value for `c1cc[n+](CCCCCCCCCCC[n+]2ccccc2)cc1` in terms of Ki is 14 µM

Entry `c1ccc2c(c1)ccc[n+]2CCCCCCCCC[n+]1cccc2ccccc21` ; Ki = 22.5 µM
